Could you please report measured inhibition at 1 µM for the items listed next?
- systemName: panel of 255 wild-type kinases (Homo sapiens)
- testProtocol: Kinase panel profiling at 1 µmol/L (MSA or IMAP), percentage inhibition
- Assay type: biochemical
- experimentalSetup: kinase JAK2; 1 µmol/L single concentration; read-out: %-inhibition at 1 µmol/L, JAK2
Numbers only, in %.

structureNotation: CN1CCN(c2ccc(C(=O)Nc3n[nH]c4ccc(Cc5cc(F)cc(F)c5)cc34)c(NC3CCOCC3)c2)CC1
readoutUnit: %
testResult: 100

structureNotation: CCn1c(=O)c(-c2cc(NC(=O)Nc3ccccc3)c(F)cc2Br)cc2cnc(NC)cc21
readoutUnit: %
testResult: 63

structureNotation: C=CC(=O)N1CCC([C@@H]2CCNc3c(C(N)=O)c(-c4ccc(Oc5ccccc5)cc4)nn32)CC1
readoutUnit: %
testResult: -0.375

structureNotation: Cc1cc(Nc2ncnc3ccc(NC4=NC(C)(C)CO4)cc23)ccc1Oc1ccn2ncnc2c1
readoutUnit: %
testResult: 4.51

Your task in this section: give inhibition at 1 µM for each listed record.
1. CO[C@]1(C(=O)N[C@@H](C)c2ccc(-n3cc(F)cn3)nc2)CC[C@H](c2nc(C)cc(Nc3cc(C)[nH]n3)n2)CC1
2. COC(=O)N[C@@H](C)CNc1nccc(-c2cn(C(C)C)nc2-c2cc(Cl)cc(NS(C)(=O)=O)c2F)n1
3. O=C(Nc1cnn2ccc(N3CCC[C@@H]3c3cc(F)ccc3F)nc12)N1CC[C@H](O)C1

1: 98; 2: 2.62; 3: 46

====

- systemName: panel of 255 wild-type kinases (Homo sapiens, UniProt P29376)
- Sequence (P29376 17-864): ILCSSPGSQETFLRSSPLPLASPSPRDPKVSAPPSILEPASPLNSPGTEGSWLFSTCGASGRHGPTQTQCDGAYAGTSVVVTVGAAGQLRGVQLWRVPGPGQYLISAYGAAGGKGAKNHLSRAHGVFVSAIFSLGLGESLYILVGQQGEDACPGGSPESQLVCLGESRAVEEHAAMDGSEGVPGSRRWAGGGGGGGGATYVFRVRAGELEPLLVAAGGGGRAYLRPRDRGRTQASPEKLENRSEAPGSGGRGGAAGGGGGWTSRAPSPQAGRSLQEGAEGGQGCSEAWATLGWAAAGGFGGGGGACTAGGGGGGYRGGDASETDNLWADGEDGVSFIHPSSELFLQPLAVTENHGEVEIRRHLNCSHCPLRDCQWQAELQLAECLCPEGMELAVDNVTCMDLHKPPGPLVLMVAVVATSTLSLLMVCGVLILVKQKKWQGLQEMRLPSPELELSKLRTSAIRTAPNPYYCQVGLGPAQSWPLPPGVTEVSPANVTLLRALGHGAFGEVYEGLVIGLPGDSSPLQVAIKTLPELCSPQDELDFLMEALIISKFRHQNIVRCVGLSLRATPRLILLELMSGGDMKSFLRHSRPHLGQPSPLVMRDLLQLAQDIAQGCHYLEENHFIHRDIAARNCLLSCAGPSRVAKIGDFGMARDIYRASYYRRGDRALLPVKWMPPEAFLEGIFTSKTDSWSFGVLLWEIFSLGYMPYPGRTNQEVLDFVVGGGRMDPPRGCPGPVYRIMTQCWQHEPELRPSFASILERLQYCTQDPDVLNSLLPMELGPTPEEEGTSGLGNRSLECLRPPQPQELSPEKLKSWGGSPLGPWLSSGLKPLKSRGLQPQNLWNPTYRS
- testProtocol: Kinase panel profiling at 1 µmol/L (MSA or IMAP), percentage inhibition
- Format: biochemical
- experimentalSetup: kinase LTK; 1 µmol/L single concentration; read-out: %-inhibition at 1 µmol/L, LTK
Could you please report measured inhibition at 1 µM for the items listed next?
Numbers only, in %.

Worked set:
structureNotation: FC(F)(F)c1ccc(CNc2ccc(Cc3c[nH]c4ncc(Cl)cc34)cn2)cn1
readoutUnit: %
inhibition at 1 µM: 10
--
structureNotation: CCN1C(=O)N(c2c(F)c(OC)cc(OC)c2F)Cc2cnc3[nH]c(CN4CCOCC4)cc3c21
readoutUnit: %
inhibition at 1 µM: 1.66
--
structureNotation: Cc1cc(Nc2ncnc3ccc(NC4=NC(C)(C)CO4)cc23)ccc1Oc1ccn2ncnc2c1
readoutUnit: %
inhibition at 1 µM: 49
--
structureNotation: COC(=O)N[C@@H](C)CNc1nccc(-c2cn(C(C)C)nc2-c2cc(Cl)cc(NS(C)(=O)=O)c2F)n1
readoutUnit: %
inhibition at 1 µM: 0.605
--
structureNotation: Cn1cnc2c(F)c(Nc3ccc(Br)cc3Cl)c(C(=O)NOCCO)cc21
readoutUnit: %
inhibition at 1 µM: 53
--
structureNotation: CCN1CCN(c2ccc(Nc3cc(N(C)C(=O)Nc4c(Cl)c(OC)cc(OC)c4Cl)ncn3)cc2)CC1
readoutUnit: %
inhibition at 1 µM: 60

Your task in this section: give inhibition at 1 µM for each listed record.
1. CCc1nc(C(N)=O)c(Nc2ccc(N3CCC(N4CCN(C)CC4)CC3)c(OC)c2)nc1NC1CCOCC1
2. C[C@H](Nc1ncnc2nc[nH]c12)c1cc2cccc(Cl)c2c(=O)n1-c1ccccc1

101
0.216

====

- systemName: panel of 255 wild-type kinases (Homo sapiens)
- testProtocol: Kinase panel profiling at 1 µmol/L (MSA or IMAP), percentage inhibition
- Type: biochemical
- experimentalSetup: CDK6/CycD3 kinase assay; 1 µmol/L single concentration; read-out: %-inhibition CDK6/CycD3
testReadout: inhibition at 1 µM
Returns: string containing the number followed by the unit.

Worked set:
structureNotation: Cc1cc(Nc2ncnc3ccc(NC4=NC(C)(C)CO4)cc23)ccc1Oc1ccn2ncnc2c1
systemName: panel of 255 wild-type kinases (Homo sapiens)
testResult: -2.12%
//
structureNotation: CO[C@]1(C(=O)N[C@@H](C)c2ccc(-n3cc(F)cn3)nc2)CC[C@H](c2nc(C)cc(Nc3cc(C)[nH]n3)n2)CC1
systemName: panel of 255 wild-type kinases (Homo sapiens)
testResult: -1.2%
//
structureNotation: Cn1cnc2c(F)c(Nc3ccc(Br)cc3Cl)c(C(=O)NOCCO)cc21
systemName: panel of 255 wild-type kinases (Homo sapiens)
testResult: -3.49%

We next turn to a different compound, shown below.
Which inhibition at 1 µM is reported for this compound? CCN1C(=O)N(c2c(F)c(OC)cc(OC)c2F)Cc2cnc3[nH]c(CN4CCOCC4)cc3c21
48%

====

- System: 134 cancer cell lines
- testProtocol: Cell viability assay (ATPlite, 72 hours), IC50 on cancer cell line panel
- experimentalSetup: Homo sapiens, BT-20, read-out: IC50 in cell proliferation assay
Could you please report measured IC50 for the items listed next?

structureNotation: CCN1C(=O)N(c2c(F)c(OC)cc(OC)c2F)Cc2cnc3[nH]c(CN4CCOCC4)cc3c21
testReadout: IC50
testResult: 2.84 µM
//
structureNotation: CCc1cc2c(cc1N1CCC(N3CCOCC3)CC1)C(C)(C)c1[nH]c3cc(C#N)ccc3c1C2=O
testReadout: IC50
testResult: > 10 µM
//
structureNotation: CC#CC(=O)N1CCC[C@H]1c1nc(-c2ccc(C(=O)Nc3ccccn3)cc2)c2c(N)nccn12
testReadout: IC50
testResult: > 31.6 µM

Which IC50 is reported for this compound? C[C@H]1Oc2cc(cnc2N)-c2c(nn(C)c2C#N)CN(C)C(=O)c2ccc(F)cc21
> 31.6 µM

====

Could you please report measured inhibition at 1 µM for the items listed next?
- systemName: UniProtKB Q12851
- Sequence (Q12851 1-820): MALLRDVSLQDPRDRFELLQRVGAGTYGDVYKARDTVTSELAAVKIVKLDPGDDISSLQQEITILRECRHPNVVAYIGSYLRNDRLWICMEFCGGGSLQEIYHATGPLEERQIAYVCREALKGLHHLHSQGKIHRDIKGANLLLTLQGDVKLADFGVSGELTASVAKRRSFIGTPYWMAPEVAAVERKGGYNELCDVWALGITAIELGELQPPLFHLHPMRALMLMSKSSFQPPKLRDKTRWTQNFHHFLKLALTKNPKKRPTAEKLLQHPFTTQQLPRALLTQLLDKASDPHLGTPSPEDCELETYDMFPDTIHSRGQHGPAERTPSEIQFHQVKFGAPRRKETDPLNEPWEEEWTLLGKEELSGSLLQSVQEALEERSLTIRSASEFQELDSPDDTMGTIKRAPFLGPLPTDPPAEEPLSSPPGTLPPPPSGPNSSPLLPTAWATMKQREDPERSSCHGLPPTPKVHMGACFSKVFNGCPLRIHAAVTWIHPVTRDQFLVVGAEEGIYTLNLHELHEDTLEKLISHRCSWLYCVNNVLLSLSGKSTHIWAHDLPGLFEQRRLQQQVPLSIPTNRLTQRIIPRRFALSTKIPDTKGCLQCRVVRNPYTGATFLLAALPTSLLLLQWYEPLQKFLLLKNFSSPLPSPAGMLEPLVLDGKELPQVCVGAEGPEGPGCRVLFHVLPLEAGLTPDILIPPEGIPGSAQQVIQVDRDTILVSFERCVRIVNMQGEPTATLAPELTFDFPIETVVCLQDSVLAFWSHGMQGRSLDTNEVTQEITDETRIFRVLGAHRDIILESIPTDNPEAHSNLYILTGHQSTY
- testProtocol: Kinase panel profiling at 1 µmol/L (MSA or IMAP), percentage inhibition
- Format: biochemical
- experimentalSetup: kinase MAP4K2; 1 µmol/L single concentration; read-out: %-inhibition at 1 µmol/L, MAP4K2

structureNotation: FC(F)(F)c1ccc(CNc2ccc(Cc3c[nH]c4ncc(Cl)cc34)cn2)cn1
testResult: 31%

structureNotation: C[C@H](Nc1ncnc2nc[nH]c12)c1cc2cccc(Cl)c2c(=O)n1-c1ccccc1
testResult: 2.36%

structureNotation: CCc1nc(C(N)=O)c(Nc2ccc(N3CCC(N4CCN(C)CC4)CC3)c(OC)c2)nc1NC1CCOCC1
testResult: 99%

We next turn to a different compound, shown below.
Give inhibition at 1 µM (UniProtKB Q12851) of the following compound: C=CC(=O)N1CCC([C@@H]2CCNc3c(C(N)=O)c(-c4ccc(Oc5ccccc5)cc4)nn32)CC1
-2.68%

====

- systemName: panel of 255 wild-type kinases (Homo sapiens)
- testProtocol: Kinase panel profiling at 1 µmol/L (MSA or IMAP), percentage inhibition
- Type: biochemical
- experimentalSetup: kinase LOK; 1 µmol/L single concentration; read-out: %-inhibition at 1 µmol/L, LOK
Tick y if inhibition at 1 µM is 6% or greater. Tick n if inhibition at 1 µM is less than 6%.

Completed entries (count: 6):
compound: Cn1cnc2c(F)c(Nc3ccc(Br)cc3F)c(C(=O)NOCCO)cc21 [binimetinib]
className: n
//
compound: Cn1cc(-c2cc3c(N4CCN(c5ncc([C@@](C)(N)c6ccc(F)cc6)cn5)CC4)ncnn3c2)cn1 [avapritinib]
className: y
//
compound: CCn1c(=O)c(-c2cc(NC(=O)Nc3ccccc3)c(F)cc2Br)cc2cnc(NC)cc21 [ripretinib]
className: y
//
compound: C=CC(=O)N1CCC([C@@H]2CCNc3c(C(N)=O)c(-c4ccc(Oc5ccccc5)cc4)nn32)CC1 [zanubrutinib]
className: n
//
compound: O=C(Nc1cnn2ccc(N3CCC[C@@H]3c3cc(F)ccc3F)nc12)N1CC[C@H](O)C1 [larotrectinib]
className: n
//
compound: C[C@H]1Oc2cc(cnc2N)-c2c(nn(C)c2C#N)CN(C)C(=O)c2ccc(F)cc21 [lorlatinib]
className: y

Could you tell me if the measured inhibition at 1 µM of CCN1C(=O)N(c2c(F)c(OC)cc(OC)c2F)Cc2cnc3[nH]c(CN4CCOCC4)cc3c21 [pemigatinib] reaches 6% or more?
n

Could you tell me if the measured inhibition at 1 µM of Cc1cc(Nc2ncnc3ccc(NC4=NC(C)(C)CO4)cc23)ccc1Oc1ccn2ncnc2c1 [tucatinib] reaches 6% or more?
y
